# protocol: Hepatocyte stability assay, mouse
# condition-info: male, mouse hepatocytes
metric: remaining at 0.5 h (%)
Field format: number, assumed %, no unit text.

The compound identified as CCOC(=O)NC(=O)c1ccsc1NC(=O)c1nc2ccccc2s1 [TCA1, reference compound] registered its remaining at 0.5 h at 74.8

* * *

# protocol: in vitro
# condition-info: human, hepatocytes
metric: half-life at 1 µM (h)
Dear colleague, please return just the value in h, with no unit written.

half-life at 1 µM reading for CCOC(=O)NC(=O)c1ccsc1NC(=O)c1ccc(C(=O)N2CCCCC2)s1 [Compound 24j] : 1.21

* * *

Some compounds, each annotated with its measured log10(MIC).
# System: M. tuberculosis H37Rv
# protocol: MIC against replicating M. tuberculosis H37Rv, microplate Alamar blue assay (MABA)
# Type: cell-based
# condition-info: Mycobacterium tuberculosis, H37RV; Table 4; read-out: MIC H37Rv
Please note: log10 values; quantity MIC; unit µg/mL.

INSERT INTO results (compound, measured_result) VALUES
  ('O=C(Nc1sccc1C(=O)Nc1nccc(C(F)(F)F)n1)c1ccc(C(=O)N2CCCCC2)cc1 [Compound 25l]', -0.70),
  ('O=c1nc(N2CCN(CC3CCCCC3)CC2)sc2c([N+](=O)[O-])cc(C(F)(F)F)cc12', -4.00),
  ('NNC(=O)c1ccncc1 [INH, isoniazid, reference compound]', -1.72);

log10(MIC) for COc1nc2ccc(Br)cc2cc1[C@@H](c1ccccc1)[C@@](O)(CCN(C)C)c1cccc2ccccc12 [bedaquiline, reference compound] is -1.44

Form field log10(MIC), entry CCOC(=O)NC(=O)c1ccsc1NC(=O)c1coc(C(=O)N2CCCCC2)c1 [Compound 24k] : -0.82

get_value(item= CCOC(=O)NC(=O)c1ccsc1NC(=O)c1ccc(C(=O)N2CCCCC2)s1 [Compound 24j] , readout=log10(MIC)) returns -1.23

log10(MIC) recorded for this compound, CCOC(=O)NC(=O)c1ccsc1NC(=O)c1nc2ccccc2s1 [TCA1, reference compound] , is -0.33
